Recorded pEC50 for the following substances
Target Desc: human GLP-1 receptor (hGLP-1R) (Homo sapiens)
Construct: expressed in transfected cells
Sequence (P43220 24-463): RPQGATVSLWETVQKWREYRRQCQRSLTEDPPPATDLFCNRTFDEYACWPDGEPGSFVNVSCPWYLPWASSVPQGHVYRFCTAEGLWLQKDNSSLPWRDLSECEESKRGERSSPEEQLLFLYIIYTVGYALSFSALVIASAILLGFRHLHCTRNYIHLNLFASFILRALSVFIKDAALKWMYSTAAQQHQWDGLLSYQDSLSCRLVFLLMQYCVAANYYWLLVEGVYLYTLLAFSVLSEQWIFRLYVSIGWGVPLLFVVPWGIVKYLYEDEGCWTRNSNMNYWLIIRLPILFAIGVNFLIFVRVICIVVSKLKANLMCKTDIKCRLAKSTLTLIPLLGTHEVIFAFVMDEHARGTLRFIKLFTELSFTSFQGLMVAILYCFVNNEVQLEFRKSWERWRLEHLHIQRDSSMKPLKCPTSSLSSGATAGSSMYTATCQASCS
Protocol: GLP-1 receptor assay, method A (CRE-luciferase reporter, BHK cells)
Type: cell-based
Cond: method A, absence of HSA; read-out: hGLP-1R Potency, no HSA, EC50
pEC50: −log10 of the molar value. Numbered stars: 1 amine (or outer) side, 2 acyl side, 3 side chain; on linkers, the order of the positions; unused ones are H or OH. Square brackets hold non-standard residues; d marks the D form. Side chains are listed from the residue outwards. * marks the point of attachment. C18 diacid = O=C(O)CCCCCCCCCCCCCCCCC(=O)*; γGlu = O=C(O)[C@H](CCC(=O)[*:2])N[*:1]; AEEA = NCCOCCOCC(=O)O; Aib = CC(C)(N)C(=O)O

{"Substance": "Y[Aib]EGTFTSDYSILLEEQAAREFIEWLLAGGPSSGALQAPGQAPLASHLSTAQTARLSAELHK([AEEA-AEEA-γGlu-C18 diacid])LATLPRTETGSGSP-NH2 [Compound 105]", "pEC50": 10.90}
{"Substance": "H[Aib]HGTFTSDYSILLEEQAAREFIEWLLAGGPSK([AEEA-AEEA-γGlu-C18 diacid])GEASHLSTAQTARLSAELHELATLPRTETGSGSP-NH2 [Compound 36]", "pEC50": 11.50}
{"Substance": "H[Aib]HGTFTSDYSILLEEQAAREFIEWLLAGGPSSGALQAPGQAPGASHLSTAQTARLSAELHRLATLPK([AEEA-AEEA-γGlu-C18 diacid])TETGSGSP-NH2 [Compound 107]", "pEC50": 11.39}
{"Substance": "Y[Aib]EGTFTSDYSILLEEQAAREFIEWLLAGGPSSGAPPPSGGGEASHLSTAQTQRLSAELHK([AEEA-AEEA-γGlu-C18 diacid])LATLPRTETGSGSP-NH2 [Compound 49]", "pEC50": 10.48}
{"Substance": "Y[Aib]EGTFTSDYSILLEEQAAREFIEWLLAGGPSSGAGQAPGQAPGASHLSTAQTQRLSAELHK([AEEA-AEEA-γGlu-C18 diacid])LATLPRTETGSGSP-NH2 [compound 52]", "pEC50": 10.96}
{"Substance": "Y[Aib]EGTFTSDYSILLEEQAAREFIEWLLAGGPSSGAGQAPGQAPGASHLSTAQTARLSAELHK([AEEA-AEEA-γGlu-C18 diacid])LATLPRTETGSGSP-NH2 [Compound 113]", "pEC50": 10.84}
